Biological target: PfHsp70-1 (Plasmodium falciparum, UniProt P11144)
Construct: recombinant PfHsp70-1 (pQE30/PfHsp70-1)
Sequence (P11144 whole entry): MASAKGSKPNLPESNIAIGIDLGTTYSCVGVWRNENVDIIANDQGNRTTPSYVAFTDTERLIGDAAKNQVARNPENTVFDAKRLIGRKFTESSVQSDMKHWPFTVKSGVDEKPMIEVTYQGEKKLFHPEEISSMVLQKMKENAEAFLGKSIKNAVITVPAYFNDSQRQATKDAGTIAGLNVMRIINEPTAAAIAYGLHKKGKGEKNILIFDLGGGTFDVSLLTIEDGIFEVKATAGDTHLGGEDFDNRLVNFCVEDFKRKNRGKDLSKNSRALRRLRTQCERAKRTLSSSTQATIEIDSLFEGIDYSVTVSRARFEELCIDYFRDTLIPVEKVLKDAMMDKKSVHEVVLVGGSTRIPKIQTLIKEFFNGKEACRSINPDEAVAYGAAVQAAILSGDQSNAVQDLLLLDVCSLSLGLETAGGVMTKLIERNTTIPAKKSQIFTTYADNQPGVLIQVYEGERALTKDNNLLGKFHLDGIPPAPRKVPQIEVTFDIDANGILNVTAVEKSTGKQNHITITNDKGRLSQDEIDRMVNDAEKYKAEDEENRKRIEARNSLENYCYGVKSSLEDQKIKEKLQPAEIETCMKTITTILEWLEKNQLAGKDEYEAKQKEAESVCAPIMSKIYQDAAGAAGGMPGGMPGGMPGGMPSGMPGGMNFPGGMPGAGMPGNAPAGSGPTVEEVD
Assay: SPR, PfHsp70-1 immobilized on CMD 3-D gold chip by amine coupling
Type: binding
value-kind: Kd (µM)
All answers are understood in µM, so give the number only.

Query: Requested field: Kd. Item: CC(=O)O[C@H]1CC[C@]2(C)[C@H]3CC=C4[C@@H]5[C@@H](C)[C@H](C)CC[C@]5(C(=O)O)CC[C@@]4(C)[C@]3(C)CC[C@H]2C1(C)C [UAA, ursolic acid acetate]
Result: 4.03
